Organism: Rattus norvegicus
method: Open TG-GATES - Regimen: Single
Format: toxicity, organism-based, Sprague-Dawley
Parameters: regimen Single, gender Male, age 6 weeks
assay.setup: in vivo, po, 0 mg/kg, 24 h, tissue Plasma, route gavage, dose level Control
quantity.kind: K (meq/L)
Answers are plain numbers, in meq/L.

Worked set:
CN(C)CCN(Cc1cccs1)c1ccccn1; 4.4
CCCNC(=O)NS(=O)(=O)c1ccc(Cl)cc1 [CHLORPROPAMIDE]; 4.2
CN1C(=O)CN=C(c2ccccc2)c2cc(Cl)ccc21 [DIAZEPAM]; 5.1
COc1cc2c(c(OC)c1OC)-c1ccc(OC)c(=O)cc1[C@@H](NC(C)=O)CC2 [COLCHICINE]; 4.9
CC1=C(/C=C/C(C)=C/C=C/C(C)=C/CO)C(C)(C)CCC1 [RETINOL]; 4.3

Provide the reported K of each entry below, same order.
1. CCOc1ccc(NC(=O)CC(C)O)cc1 (stereo not drawn) [BUCETIN]
2. CCOC(=O)CCC(=O)O[C@H]1[C@H](O[C@@H]2[C@@H](C)[C@H](O[C@H]3C[C@@](C)(OC)[C@@H](O)[C@H](C)O3)[C@@H](C)C(=O)O[C@H](CC)[C@@](C)(O)[C@H](O)[C@@H](C)C(=O)[C@H](C)C[C@@]2(C)O)O[C@H](C)C[C@@H]1N(C)C [ERYTHROMYCIN ETHYLSUCCINATE]

[4.1, 4.3]

Which K value belongs to O=C(CCCN1CCC(O)(c2ccc(Cl)cc2)CC1)c1ccc(F)cc1 [HALOPERIDOL] ?
4.9

* * *

Species: Rattus norvegicus
method: Open TG-GATES - Regimen: Single
Assay type: toxicity, organism-based, Sprague-Dawley
Set-up: regimen Single, gender Male, age 6 weeks
assay.setup: in vivo, po, 30 mg/kg, 6 h, tissue Kidney, route gavage, dose level Middle
quantity.kind: KIDNEY_L (g)
Answers are plain numbers, in g.

Worked set:
CC1=C(/C=C/C(C)=C/C=C/C(C)=C/CO)C(C)(C)CCC1; 0.9
CN(C)CCN(Cc1cccs1)c1ccccn1; 0.8
CN(C)CCCN1c2ccccc2CCc2ccccc21; 0.9

Which KIDNEY_L value belongs to CN(C)CCCN1c2ccccc2CCc2ccc(Cl)cc21 ?
1

* * *

Species: Rattus norvegicus
method: Open TG-GATES - Regimen: Single
Type: toxicity, organism-based, Sprague-Dawley
Design: regimen Single, gender Male, age 6 weeks
assay.setup: in vivo, po, 100 mg/kg, 3 h, tissue Plasma, route gavage, dose level High
quantity.kind: RALB (g/dL)
Numbers only, in g/dL.

Worked set:
CN(C)CCCN1c2ccccc2CCc2ccc(Cl)cc21 [CLOMIPRAMINE]; 2.5
CC1=C(/C=C/C(C)=C/C=C/C(C)=C/CO)C(C)(C)CCC1 [RETINOL]; 3.2
CN(C)CCCN1c2ccccc2CCc2ccccc21 [IMIPRAMINE]; 2.5

Which RALB value belongs to CN(C)CCN(Cc1cccs1)c1ccccn1 ?
2.9

* * *

Species: Rattus norvegicus
method: Open TG-GATES - Regimen: Single
Format: toxicity, organism-based, Sprague-Dawley
Parameters: regimen Single, gender Male, age 6 weeks
assay.setup: in vivo, po, 100 mg/kg, 6 h, tissue Blood, route gavage, dose level Low
For each of the compounds below, state its Mono.
Give bare numbers, in %.

Worked set:
NC(N)=Nc1nc(CSCCC(N)=NS(N)(=O)=O)cs1; 2.6
COC1=CC(=O)C[C@@H](C)[C@]12Oc1c(Cl)c(OC)cc(OC)c1C2=O; 3
CCOC(=O)CCC(=O)O[C@H]1[C@H](O[C@@H]2[C@@H](C)[C@H](O[C@H]3C[C@@](C)(OC)[C@@H](O)[C@H](C)O3)[C@@H](C)C(=O)O[C@H](CC)[C@@](C)(O)[C@H](O)[C@@H](C)C(=O)[C@H](C)C[C@@]2(C)O)O[C@H](C)C[C@@H]1N(C)C [ERYTHROMYCIN ETHYLSUCCINATE]; 2.6

Please find the next compound below.
Which Mono value belongs to COc1ccc2[nH]c([S+]([O-])Cc3ncc(C)c(OC)c3C)nc2c1 (centres undefined) ?
4
